experimental_details: HT29 colon tumor cell growth inhibition, primary screen, imaging, high content imaging, 24 h, CellTiter-Glo (AID 770)
test_parameters: HT29 cell number by imaging, measured here: ATP CellTiter-Glo viability, at 10 µM, stronger effect = higher value
The campaign covered roughly 3,300 compounds. Fewer than 10 were called active. The list is a sample of the results.
Reported values of growth inhibition for individual entries
metric_name: growth inhibition (%)

>  <compound>
CCCOc1ccc(Cc2nn[nH]n2)cc1

>  <reported_measurement>
4.03

$$$$
>  <compound>
COc1ccc(C(=O)OC(C)CN2CCN(C)CC2)cc1OC (stereo not given)

>  <reported_measurement>
1.58

$$$$
>  <compound>
Cc1cccn2c(=O)c(/C=C(\C#N)S(=O)(=O)c3ccccc3)c(N3CCN(C)CC3)nc12

>  <reported_measurement>
13.3

$$$$
>  <compound>
COc1cc(C2C(C(=O)c3ccc(C)o3)=C(O)C(=O)N2c2cc(C)on2)cc(OC)c1OC (stereo not given)

>  <reported_measurement>
-13.1

$$$$
>  <compound>
CN(C)CCCN(CCCNC(=O)/C=N/O)Cc1ccccc1

>  <reported_measurement>
-9.76

$$$$
>  <compound>
CCN(CC)c1ccc2cc(-c3nnc(-c4ccncc4)o3)c(=O)oc2c1

>  <reported_measurement>
-9.78

$$$$
>  <compound>
Nc1ccc2oc(-c3ccccc3Cl)nc2c1

>  <reported_measurement>
5.57

$$$$
>  <compound>
N#CC(C(=O)NC1CC1)c1nc2ccccc2nc1N1CCN(C/C=C/c2ccccc2)CC1 (stereo not given)

>  <reported_measurement>
-7.38

$$$$
>  <compound>
C/C(=N\O)C(=O)NCCCNCCCN(C)C

>  <reported_measurement>
10.3

$$$$
>  <compound>
CCCCOc1ccc(CN(C)c2ncnc(N)n2)cc1

>  <reported_measurement>
22.5

$$$$
>  <compound>
CCN(CC)CCNc1nc2c(c(=O)[nH]c(=O)n2C)n1CCOc1ccccc1

>  <reported_measurement>
-0.48

$$$$
>  <compound>
O=C(C/C(=N/O)c1ccccc1O)C(F)F

>  <reported_measurement>
-14.3

$$$$
>  <compound>
CC1(C)CC(=O)C2=C(C1)N(Cc1ccco1)C(=O)C2(O)C(F)(F)F (stereo not given)

>  <reported_measurement>
-21.1

$$$$
>  <compound>
CCN(CC)c1ccc2cc(C(=O)Nc3ccccn3)c(=O)oc2c1

>  <reported_measurement>
-4.18

$$$$
>  <compound>
COC(=O)CSc1nc(C)c(C(C)=O)cc1C#N

>  <reported_measurement>
-9.13

$$$$

###

experimental_details: HT29 colon tumor cell growth inhibition, primary screen, imaging, high content imaging, 24 h, CellTiter-Glo (AID 770)
test_parameters: HT29 cell number by imaging, at 10 µM, stronger effect = higher value
Fewer than 10 of roughly 3,300 compounds were called active. The list is a sample of the results.

>  <compound>
CCc1nc2sc3c(c2c(=O)o1)CCCC3

>  <growth inhibition [%]>
-25.2

$$$$
>  <compound>
O=c1[nH]cnc2cc(-c3ccccc3)sc12

>  <growth inhibition [%]>
7.95

$$$$
>  <compound>
COC(=O)c1n[nH]c2ccccc12

>  <growth inhibition [%]>
52.2

$$$$
>  <compound>
COc1ccc(C2NC(=O)NC(O)(C(F)(F)F)C2C(=O)c2ccc(F)cc2)cc1 (configuration not stated)

>  <growth inhibition [%]>
-33.6

$$$$
>  <compound>
Cc1ccc(CNc2oc(COc3ccccc3Cl)nc2C#N)cc1

>  <growth inhibition [%]>
-7.99

$$$$
>  <compound>
COc1ccc(OC)c(C2/C(=C(/O)c3ccccc3)C(=O)C(=O)N2Cc2ccco2)c1 (configuration not stated)

>  <growth inhibition [%]>
11.9

$$$$
>  <compound>
COc1ccc(OC)c(N=C(C)C2=C(O)COC2=O)c1

>  <growth inhibition [%]>
23.1

$$$$
>  <compound>
Cc1ccc(C(=O)C2=C(O)C(=O)N(CCN3CCOCC3)C2c2ccccn2)o1 (configuration not stated)

>  <growth inhibition [%]>
20.8

$$$$
>  <compound>
C/C(=N\O)C(=O)NCCCNCCCN(C)C

>  <growth inhibition [%]>
28.6

$$$$
>  <compound>
CC1(C)CC(N(Cc2ccco2)C(=O)Cc2ccccc2)CCO1 (configuration not stated)

>  <growth inhibition [%]>
12.6

$$$$
>  <compound>
O=S(=O)(/C=C/c1ccccc1)Nc1ccc2c(c1)OCO2

>  <growth inhibition [%]>
-3.8

$$$$
>  <compound>
CN(C)/C=C1\N=C(c2cccs2)OC1=O

>  <growth inhibition [%]>
21

$$$$

###

experimental_details: HT29 colon tumor cell growth inhibition, primary screen, imaging, high content imaging, 24 h, CellTiter-Glo (AID 770)
test_parameters: HT29 cell number by imaging, at 10 µM, stronger effect = higher value
Fewer than 10 of roughly 3,300 compounds were called active. These entries were drawn from the full list.
metric_name: growth inhibition (%)

>  <compound>
Cc1ccc(-c2nnc(OCCN3CCOCC3)c3ccccc23)cc1

>  <reported_measurement>
30.1

$$$$
>  <compound>
COc1ccc(-n2ccc(=O)c3c2CCCC3=O)cc1

>  <reported_measurement>
-18.6

$$$$
>  <compound>
CCCCCCc1cc2cc(-c3nnc(-c4ccccc4O)o3)c(=O)oc2cc1O

>  <reported_measurement>
47

$$$$
>  <compound>
CCc1cc(=O)oc2c(CN3CCN(C)CC3)c(O)c(Cl)cc12

>  <reported_measurement>
52.2

$$$$
>  <compound>
CC(=Nc1ccc(C)c(C)c1)C1=C(O)CCC1=O

>  <reported_measurement>
6.59

$$$$
>  <compound>
COc1cccc(C2/C(=C(\O)c3ccc4c(c3)OCCO4)C(=O)C(=O)N2CCN(C)C)c1 (stereo not given)

>  <reported_measurement>
2.52

$$$$
>  <compound>
C=CCN=C(C)C1=C(O)CCC1=O

>  <reported_measurement>
-21.7

$$$$
>  <compound>
Cc1cc(C)nc(NC2=NCC(=O)N2c2ccccc2)n1

>  <reported_measurement>
-50.8

$$$$
>  <compound>
CCOC(=O)N1CCN(c2ncnc3c2cnn3-c2ccc(OC)cc2)CC1

>  <reported_measurement>
17

$$$$
>  <compound>
CC1(C)CC(=O)C2=C(C1)N(Cc1ccco1)C(=O)C2(NC(=O)c1cccnc1)C(F)(F)F (stereo not given)

>  <reported_measurement>
18.6

$$$$
>  <compound>
Cc1nc(Nc2ncc3c(n2)CCCC3=O)nc2ccccc12

>  <reported_measurement>
-21.1

$$$$
>  <compound>
CC(NC(=O)CSc1nnc(COc2ccccc2)o1)c1ccccc1 (stereo not given)

>  <reported_measurement>
2.08

$$$$
>  <compound>
CCCOc1ccc(C2NC(=O)NC2=O)cc1 (stereo not given)

>  <reported_measurement>
10.6

$$$$
>  <compound>
CC1(C)Cc2c(c(-c3ccccc3Cl)[nH]c(=O)c2C#N)CO1

>  <reported_measurement>
-42.2

$$$$
>  <compound>
COc1ccc(N2CCN(c3oc(COc4ccc(Cl)cc4)nc3C#N)CC2)cc1

>  <reported_measurement>
22.4

$$$$
>  <compound>
COc1cc(C)nc(N(C)S(=O)(=O)c2ccccc2Cl)n1

>  <reported_measurement>
7.98

$$$$
>  <compound>
CCOC(=O)c1cc(CC)sc1NC(=O)C1CC1

>  <reported_measurement>
-8.79

$$$$
>  <compound>
CSc1nncc(=O)[nH]1

>  <reported_measurement>
-17.8

$$$$
>  <compound>
CC1(C)CC(=O)C=C(NCCO)C1

>  <reported_measurement>
25.6

$$$$
>  <compound>
CCOC(=O)CC1=NC(=O)CS1

>  <reported_measurement>
7.12

$$$$

###

experimental_details: HT29 colon tumor cell growth inhibition, primary screen, imaging, high content imaging, 24 h, CellTiter-Glo (AID 770)
test_parameters: HT29 cell number by imaging, at 10 µM, stronger effect = higher value
The campaign covered roughly 3,300 compounds. Fewer than 10 were called active. Not all results are given here.
Reported values of growth inhibition for individual entries

>  <compound>
CC(C)Nc1nc(NC(C)C)nc(N(C)n2cnnc2)n1

>  <growth inhibition / %>
-12.4

$$$$
>  <compound>
Cc1c(OCc2ccccc2)c(=O)ccn1Cc1ccccc1

>  <growth inhibition / %>
-0.34

$$$$
>  <compound>
Cn1c(O)c(C=Nc2ccc(Cc3ccncc3)cc2)c(=O)n(C)c1=O

>  <growth inhibition / %>
13.2

$$$$
>  <compound>
CCCCCCOc1ccc(C(=O)n2cnc(N)n2)cc1

>  <growth inhibition / %>
-1.14

$$$$
>  <compound>
CCCCOc1ccc(CN(C)c2ncnc(N)n2)cc1

>  <growth inhibition / %>
56

$$$$
>  <compound>
Cc1ccc(N2CN=c3s/c(=C\c4cccnc4)c(=O)n3C2)cc1

>  <growth inhibition / %>
8.42

$$$$
>  <compound>
N#CCSc1nc2c(cc1C#N)CCCCCC2

>  <growth inhibition / %>
27.6

$$$$
>  <compound>
CCOC(=O)NC(O)C(=O)c1cccs1 (configuration not stated)

>  <growth inhibition / %>
-55.2

$$$$
>  <compound>
N#CC(C(=O)NC1CC1)c1nc2ccccc2nc1N1CCN(C/C=C/c2ccccc2)CC1 (configuration not stated)

>  <growth inhibition / %>
-33.2

$$$$
>  <compound>
CC(C)Sc1nc(N2CCCC2)c2c(c1C#N)CC(C)(C)OC2

>  <growth inhibition / %>
-32.3

$$$$
>  <compound>
C=CCc1c(C)nc(SCCC)[nH]c1=O

>  <growth inhibition / %>
-39.5

$$$$
>  <compound>
Cc1nc2c(c(=O)n1CC1CCCO1)c1nc3ccccc3nc1n2CC(C)C (configuration not stated)

>  <growth inhibition / %>
47.8

$$$$

Every entry's value here was drawn from PubChem BioAssay AID770.
